Every entry's value here was drawn from paper PMC5053523.

tested on: Acinetobacter baumannii; test: MIC with/without sub-MIC colistin, Acinetobacter baumannii; format: cell-based; conditions: Acinetobacter baumannii, ATCCBAA747
Measured MIC accompanies every entry in the list below.

Look over these answered cases.
O=C(O)[C@H](Cc1ccccc1)N1C(=O)/C(=C/c2cccc(-c3ccccc3)c2)SC1=S: > 128 µM
CC(=O)O[C@H]1C[C@@]2(C)[C@@H](C[C@@H](O)[C@H]3[C@@]4(C)CC[C@@H](O)[C@@H](C)[C@@H]4CC[C@@]32C)/C1=C(\CCC=C(C)C)C(=O)O [Fusidic acid, fusidic acid, reference compound]: > 128 µM

Now consider a different molecule.
// lookup MIC for CCCCCCCCCC(=O)N[C@@H](Cc1c[nH]c2ccccc12)C(=O)N[C@H](CC(N)=O)C(=O)N[C@@H](CC(=O)O)C(=O)N[C@@H]1C(=O)NCC(=O)N[C@@H](CCCN)C(=O)N[C@@H](CC(=O)O)C(=O)N[C@H](C)C(=O)N[C@@H](CC(=O)O)C(=O)NCC(=O)N[C@H](CO)C(=O)N[C@@H]([C@H](C)CC(=O)O)C(=O)N[C@@H](CC(=O)c2ccccc2N)C(=O)O[C@@H]1C [Daptomycin, reference compound]
> 128 µM
